System: CP238
Test: qHTS profiling for inhibitors of Plasmodium falciparum proliferation (AID 504749); further: nearly all actives have a fitted effect of over 60% in size
Details: P. falciparum in erythrocytes, SYBR Green DNA, 72 h; series mostly up to 28.7 µM
Results filed as inconclusive are left out. Active and inactive are the calls of the source. The call rests on the fitted dose curve; in most records, active means well fitted inhibition curve with a large enough effect; inconclusive means small, poorly fitted or top-dose-only effect; inactive means flat fitted curve, though single readings scatter.
Possible outcomes: active, inactive

| compound | groupLabel |
| --- | --- |
| Nc1ccc(S(=O)(=O)Nc2ccccc2)cc1 | inactive |
| O=C(CCCN1CCN(c2ccccn2)CC1)c1ccc(F)cc1 | inactive |
| NC(=O)NNc1ccccc1 | inactive |
| OCc1cc(C(O)CNCCCCCCOCCCCc2ccccc2)ccc1O (stereo not given) | inactive |
| CC(=O)CCC(=O)O | inactive |
| CC1(C)[C@@H]2CC[C@@]1(C)C(=O)C2 | inactive |
| Nc1ncnc2c1ncn2[C@@H]1O[C@H](CO)[C@@H](O)[C@H]1O | inactive |
| CCCCOc1cc(C(=O)OCCN(CC)CC)ccc1N | inactive |
| C[C@@H]1CN(c2c(F)c(F)c3c(=O)c(C(=O)O)cn(C4CC4)c3c2F)C[C@H](C)N1 | inactive |
| O=c1[nH]c(=O)c2[nH]c(=O)[nH]c2[nH]1 | inactive |
| CC(=O)c1ccc2c(c1)N(CCCN(C)C)c1ccccc1S2 | inactive |
| CC1=C(/C=C/C(C)=C/C=C/C(C)=C/C(=O)O)C(C)(C)CCC1 | inactive |
| CCN(CC)CCNC(=O)c1cc(Cl)c(N)cc1OC | inactive |
| CCCCOC(=O)c1ccc(O)cc1 | inactive |
| CC1=C(CC(=O)O)c2cc(F)ccc2/C1=C\c1ccc(S(C)=O)cc1 (stereo not given) | inactive |
| CCN(CC)CCNC(=O)c1c(C)[nH]c(/C=C2\C(=O)Nc3ccc(F)cc32)c1C | active |
| C[C@](N)(Cc1ccc(O)cc1)C(=O)O | inactive |
| OCC(O)CN1CCN(c2ccccc2)CC1 (stereo not given) | inactive |
| CCCCC(CC)COC(=O)c1ccccc1O (stereo not given) | inactive |
| CCCn1cnc2c1c(=O)n(CCCCC(C)=O)c(=O)n2C | inactive |
| CC(=O)Oc1ccc(C2(c3ccc(OC(C)=O)cc3)C(=O)Nc3ccccc32)cc1 | inactive |
| CC(C)(C)NCC(O)COc1ccc(NC(=O)NC2CCCCC2)cc1 (stereo not given) | inactive |
| O=c1cc[nH]c(=O)[nH]1 | inactive |
| COc1cc(C)c(Cc2cnc(N)nc2N)cc1OC | inactive |
| Cc1cc2c(cc1S(N)(=O)=O)S(=O)(=O)CCC2 | inactive |
